The origin of these recorded values is PubChem BioAssay (EPA / NIEHS).

assay: CCTE_Shafer_MEA_acute_burst_number: CCTE's Neural Acute Assay for Single-Electrode Bursts, Shafer Lab (AID 2284013)
Activity calls are given as the source filed them. Rule for the calls: active = hit-call score of the fitted dose curve at least 0.9, where 1 is the maximum; inactive = score below 0.9.
Select the matching outcome among active, inactive

Recorded test call requested for "NS(=O)(=O)c1cc2c(cc1Cl)NCNS2(=O)=O"
inactive

What is the recorded call for this molecule in the test? "CCCc1cc(=O)[nH]c(=S)[nH]1"
inactive

What is the recorded call for this molecule in the test? "CN[C@H]1CC[C@@H](c2ccc(Cl)c(Cl)c2)c2ccc(S(N)(=O)=O)cc21"
inactive

For this molecule, state the assay outcome: "FC(F)(F)C(F)(F)C(F)(F)C(F)(F)C(F)(F)C(F)(F)CCI"
inactive

Tell me the assay call for "Cc1ccc2ncccc2c1" please.
inactive

Given "CC(C)(C)c1cc(O)c(C(C)(C)C)cc1O" , state the outcome it received in this test.
inactive

Field: outcome | Entry: "CCOC(=O)C(C)(C)Oc1ccc(Cl)cc1"
inactive

Please let me know the test result on file for "CN1CCCC1=O" .
inactive

For this molecule, state the assay outcome: "c1cc(-c2ccncc2)ccn1"
inactive

Record request — test call for "C=CCc1ccc(O)c(OC)c1"
inactive

What classification did "CC(=O)Oc1ccccc1C(=O)O" end up with in this test?
inactive

Dear colleague, could you share the recorded outcome for "O=C(O)CCCCC(=O)O" when you have a moment?
inactive

# lookup: test call for "Clc1cc(Cl)c(Cl)cc1Cl"
inactive

What was the test verdict on "C[Si]1(C)O[Si](C)(C)O[Si](C)(C)O[Si](C)(C)O1" ?
inactive

Recorded call for "CNCc1cc(F)ccc1Oc1ccc(Cl)c(Cl)c1" ?
active

Kindly provide the recorded test outcome for the following molecule: "COc1ccc2c(c1)c(CC(=O)O)c(C)n2C(=O)c1ccc(Cl)cc1"
inactive

State the result this test recorded for "Cc1ccc(C(C)C)c(O)c1" .
inactive

Answer briefly: the call reported for "Nc1ccccc1N" in this assay.
inactive

###

assay: ATG_NFI_CIS: Attagene CIS-FACTORIAL HepG2 Assay for human Nuclear Factor I (NFI) (AID 2282989); conditions: HepG2 cis-regulatory reporter, NFI response element transcription; actives raise or lower the signal
The source made the active and inactive calls. Rule for the calls: active = hit-call score of the fitted dose curve at least 0.9, where 1 is the maximum; inactive = score below 0.9.
Please reply with one of these outcomes: y (active), n (inactive)

# fetch the recorded call for "CN1CCN(Cc2cc(-c3ccc4[nH]c(=O)oc4c3)co2)[C@@H](c2ccc(F)cc2)C1" here
n

I'd appreciate the recorded outcome for "CCCCCCCCCCC" from this test.
n

Please state the recorded outcome for this molecule: "FC(F)(F)C(F)(F)C(F)(F)C(F)(F)C(F)(F)C(F)(F)CCI"
n

What classification did "COc1ccc(S(=O)(=O)N2C(=O)[C@@](c3ccccc3OC)(N3C[C@H](O)C[C@H]3C(=O)N(C)C)c3cc(Cl)ccc32)c(OC)c1" end up with in this test?
n

For this molecule, state the assay outcome: "Nc1ccc2c(c1)C(=O)c1ccccc1C2=O"
n

Which outcome did this test record for the molecule "CN1CCCC1=O" ?
n

Record lookup: outcome of this test for "COc1ccc(C)cc1N" ?
n

Recorded call for "CCCc1cc(=O)[nH]c(=S)[nH]1" ?
n

State the result this test recorded for "C=CCc1ccc(O)c(OC)c1" .
n

Called result for "Cc1oc(-c2ccccc2)nc1CCOc1cccc2c1ccn2CCC(=O)O"
n

Can you look up the reported call for "Nc1ccccc1N" for me?
y

I'd appreciate the recorded outcome for "COCCOCCOC" from this test.
n

###

read-out: Cytochrome P450 2C19 (Homo sapiens) (UniProt P33261); assay: LTEA_HepaRG_CYP2C19: Life Technologies and Expression Analysis (LTEA) Assay for CYP2C19 using HepaRG (AID 2283482); details: mRNA level, 48 h; actives raise or lower the signal
Sequence (P33261 whole entry, looked up): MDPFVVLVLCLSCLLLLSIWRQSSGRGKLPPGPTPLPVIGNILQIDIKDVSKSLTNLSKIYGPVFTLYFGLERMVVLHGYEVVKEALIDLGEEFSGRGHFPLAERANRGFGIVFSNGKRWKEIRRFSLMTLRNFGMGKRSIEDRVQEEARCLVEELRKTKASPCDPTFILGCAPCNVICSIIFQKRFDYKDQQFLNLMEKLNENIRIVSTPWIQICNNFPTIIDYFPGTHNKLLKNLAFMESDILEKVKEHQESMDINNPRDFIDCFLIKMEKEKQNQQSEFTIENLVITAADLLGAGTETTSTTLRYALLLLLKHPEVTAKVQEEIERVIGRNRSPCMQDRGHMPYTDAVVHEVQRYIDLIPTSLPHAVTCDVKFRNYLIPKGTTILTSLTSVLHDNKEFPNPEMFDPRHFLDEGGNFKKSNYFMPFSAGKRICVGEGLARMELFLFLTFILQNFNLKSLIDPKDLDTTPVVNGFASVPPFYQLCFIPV
Active and inactive are the calls of the source. Rule for the calls: active = hit-call score of the fitted dose curve at least 0.9, where 1 is the maximum; inactive = score below 0.9.
A correct response names exactly one class from active, inactive

Assay result, entry "Nc1nc(N)c2nc(CNc3ccc(C(=O)N[C@@H](CCC(=O)O)C(=O)O)cc3)cnc2n1" — outcome?
inactive

Give the logged outcome of this assay for the following molecule: "CCOC(=O)CCC(=O)OCC"
inactive

Tell me the recorded outcome of this test for "Clc1cc(Cl)c(Cl)cc1Cl" .
inactive

# lookup: test call for "COc1cc(S(=O)(=O)O)c(C)cc1N=Nc1c(O)ccc2cc(S(=O)(=O)O)ccc12"
inactive

Status in this test for "O=C(OCCCCCOC(=O)c1ccccc1)c1ccccc1" ?
active

I would be grateful if you could indicate the recorded call for "O=C(O)CCCCC(=O)O" .
inactive

###

experiment: BSK_3C_Vis: BioMAP Diversity Plus: 3C Assay for Morphology Visualization (AID 2283025); conditions: primary human endothelial cells (HUVEC);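 note: fitted both ways so gain or loss versus DMSO counts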
Activity calls are given as the source filed them. Rule for the calls: active = hit-call score of the fitted dose curve at least 0.9, where 1 is the maximum; inactive = score below 0.9.
The reply should be one of these categories: active, inactive

So what was the verdict on "CC=Cc1ccc(O)c(OC)c1" in this test?
inactive

Could you please tell me the result logged for "Cc1c(C(=O)O)c(O)cc2c1C(=O)c1c(O)c([C@@H]3O[C@H](CO)[C@@H](O)[C@H](O)[C@H]3O)c(O)c(O)c1C2=O" in this assay?
inactive

Per the assay record, what outcome was assigned to "CCCCCCOCCO" ?
inactive

Assay result, entry "O=C(O)Cc1ccccc1Nc1c(Cl)cccc1Cl" — outcome?
inactive

Look up the recorded call for "Cc1ccccc1Cl" in this test.
inactive

Test call, this molecule: "CC(=O)OC/C=C(\C)CCC=C(C)C"
inactive

Recorded test outcome, item "CCOc1ccc2c(c1)C(C)=CC(C)(C)N2"
inactive

Just curious, what result did "CCCCCCCCCCCCCCCCCC(=O)O" get here?
active

Returns: the outcome recorded for "Nc1ccc(S(=O)(=O)c2ccc(N)cc2)cc1" in this assay.
inactive

Please share the test call associated with "CC1(C)NC(=O)NC1=O" .
inactive

Record lookup: outcome of this test for "O=c1c(O)c(-c2ccc(O)c(O)c2)oc2cc(O)cc(O)c12" ?
active

Hi, sorry to bother you, what did the test record for "COc1ccc(C)cc1N" ?
inactive

Assay outcome for "CC1=C(/C=C/C(C)=C/C=C/C(C)=C/CO)C(C)(C)CCC1" : what was it?
inactive

For "CCCc1cc(=O)[nH]c(=S)[nH]1" , which call appears in the assay record?
inactive

Please share the test call associated with "Cc1cccc([N+](=O)[O-])c1C" .
inactive

Record lookup: outcome of this test for "O=[N+]([O-])C(CO)(CO)CO" ?
inactive

Check the results log: what was the call for "C[Si]1(C)O[Si](C)(C)O[Si](C)(C)O[Si](C)(C)O1" ?
inactive

Look up the recorded call for "Nc1ccccc1N" in this test.
inactive

Outcome? CC(CO)OC(C)CO (stereo unspecified) (tested in a mixture with another compound)
inactive

GET /call?item= "Oc1ccc2c(c1)OC[C@@H](N1CCC(O)(c3ccc(F)cc3)CC1)[C@H]2O" returns the recorded outcome of this test.
inactive

Fill in: this test's call for "CCCCCCCCCCCC(=O)OC" is ___
inactive

###

read-out: growth arrest and DNA damage 45 (GADD45A), GADD45A (gene 1647); assay: LTEA_HepaRG_GADD45A: Life Technologies and Expression Analysis (LTEA) Assay for growth arrest and DNA damage 45 (GADD45A) using HepaRG (AID 2283458); conditions: mRNA level, 48 h; actives raise or lower the signal
Activity calls are given as the source filed them. Rule for the calls: active = hit-call score of the fitted dose curve at least 0.9, where 1 is the maximum; inactive = score below 0.9.
Return exactly one item of 1.0 = active, 0.0 = inactive

What classification did "CCCCCC(=O)O" end up with in this test?
0.0

Status in this test for "Nc1ccccc1N" ?
1.0

What outcome does the record of this test show for "CCNc1cccc(C)c1" ?
0.0

Assay result, entry "CCCCCCCCCCCC(=O)OC" — outcome?
0.0

Dear colleague, could you share the recorded outcome for "CC(=O)Oc1ccccc1C(=O)O" when you have a moment?
0.0

Identify the outcome logged in this assay for the compound shown: "C[Si]1(C)O[Si](C)(C)O[Si](C)(C)O[Si](C)(C)O1"
0.0

Entry "Cc1ccc(Cl)cc1" : call = ?
0.0

For this compound, state the assay outcome: "Cc1ccc(N(C)C)cc1"
0.0

Status in this test for "Nc1nc(N)c2nc(CNc3ccc(C(=O)N[C@@H](CCC(=O)O)C(=O)O)cc3)cnc2n1" ?
0.0

Hello, I am checking results. What call was entered for "CCCCCCCCCCCCCCCCCC(=O)O" ?
0.0

Given "Nc1ccc2c(c1)C(=O)c1ccccc1C2=O" , state the outcome it received in this test.
0.0

I would be grateful if you could indicate the recorded call for "FC(F)(F)C(F)(F)C(F)(F)C(F)(F)C(F)(F)C(F)(F)CCI" .
0.0

So what was the verdict on "CCCc1cc(=O)[nH]c(=S)[nH]1" in this test?
0.0

// outcome(item) with item = "CCCCCCCCCCCCCO"
0.0

Hi team, can someone confirm the assay call for "Cc1ccc(C)c(O)c1C" ?
0.0

Would you mind telling me which call this test gave "Oc1ccc2ccccc2c1N=Nc1ccccc1" ?
0.0

How was "Oc1ccc2c(c1)OC[C@@H](N1CCC(O)(c3ccc(F)cc3)CC1)[C@H]2O" classified in this test?
0.0

Write down the call the test reported for this compound. Item: "CC(=O)OCCOCCOCCOC(C)=O"
0.0

Please indicate how the test categorized "CCCCCCCCCCC" .
0.0

Recorded test call requested for "O=C(OCCCCCOC(=O)c1ccccc1)c1ccccc1"
1.0

Status in this test for CC(CO)OC(C)CO (stereo not drawn) (tested in a mixture with another compound) ?
0.0

Test call for this compound, please: CC(=O)C(C)=CC1C(C)=CCCC1(C)C (stereo not drawn)
0.0

// outcome(item) with item = "CCCCCCC(=O)OCC"
0.0

Record request — test call for "CCCCCCCCCCCCCCCC"
0.0

Assay result, entry "COc1cc(-c2nc(NC(=O)c3cc4cc(C)cc(C)c4n3CC(=O)O)sc2CCC2CCCCC2)c(OC)cc1Cl" — outcome?
1.0

I would be grateful if you could indicate the recorded call for CCCCC(CC)COC(=O)CC(C(=O)OCC(CC)CCCC)S(=O)(=O)O (stereo not drawn) .
1.0

For "CCCCOC(=O)CCCCCCCCC(=O)OCCCC" , which call appears in the assay record?
0.0

// return assay outcome for "Nc1ccc(S(=O)(=O)c2ccc(N)cc2)cc1"
0.0

What was the test verdict on "CCOc1ccc2c(c1)C(C)=CC(C)(C)N2" ?
0.0

// outcome(item) with item = "O=c1c(O)c(-c2ccc(O)c(O)c2)oc2cc(O)cc(O)c12"
0.0

State the result this test recorded for "COC(=O)c1ccc(O)cc1" .
0.0

Entry "Cc1ccc2ncccc2c1" : call = ?
0.0

Please indicate how the test categorized "CC=Cc1ccc(O)c(OC)c1" .
0.0

Each compound tested received a call. Report the one for "Clc1cc(Cl)c(Cl)cc1Cl" .
0.0

Dear colleague, could you share the recorded outcome for "CC1=C(/C=C/C(C)=C/C=C/C(C)=C/CO)C(C)(C)CCC1" when you have a moment?
0.0

What was the test verdict on "NCC1(Cc2noc(=O)[nH]2)CCCCC1" ?
0.0

Please indicate how the test categorized "COc1cc(S(=O)(=O)O)c(C)cc1N=Nc1c(O)ccc2cc(S(=O)(=O)O)ccc12" .
0.0

Hi, do you know how "Cc1cc(NC(=O)C(=O)O)cc(C)c1Oc1ccc(O)c2c1CCC2" came out in this test?
0.0

Just curious, what result did "CC(=O)OC/C=C(\C)CCC=C(C)C" get here?
0.0

Write down the call the test reported for this compound. Item: "CCCCN(CCCC)CCCC"
0.0

Lab log entry: "CCOC(=O)C(C)(C)Oc1ccc(Cl)cc1" — outcome as called in the assay?
0.0

What was the test verdict on "CC(C)(C)c1cc(O)c(C(C)(C)C)cc1O" ?
1.0

Hi, sorry to bother you, what did the test record for "Cc1ccc(C(C)C)c(O)c1" ?
0.0

Which result was noted for this compound in the test: "O=C(O)CCCCC(=O)O"
0.0

Which outcome did this test record for the compound "Cc1cccc([N+](=O)[O-])c1C" ?
0.0

Assay result, entry "Cc1ccc(C)c(C)c1" — outcome?
0.0

Kindly provide the recorded test outcome for the following compound: "COc1cc(C=O)ccc1O"
0.0

For Cc1nc(-c2ccc3c(c2)CCN(CCC2CCC(NC(=O)/C=C/c4ccc(F)cc4)CC2)CC3)no1 (stereo not drawn) , what call appears in the results of this test?
0.0

Returns: the outcome recorded for "O=c1[nH]cc(F)c(=O)[nH]1" in this assay.
0.0

How did this test come out for "CN1CCCC1=O" ?
0.0

What is the recorded call for this compound in the test? "Cc1ccccc1Cl"
0.0

So what was the verdict on "OC[C@@H](O)[C@@H](O)[C@H](O)[C@H](O)CO" in this test?
0.0

Lab log entry: "CNC(=O)[C@H]1O[C@@H](n2cnc3c(NCc4cc(Cl)ccc4OCc4cc(C)no4)ncnc32)[C@H](O)[C@@H]1N" — outcome as called in the assay?
0.0
